# credit: PubChem BioAssay

What z-score was measured for each of the following?
# Study Target: NADPH oxidase 2 (Homo sapiens)
# Protocol Description: compounds shifting NOX2 Amplex Red fluorescence – cell-based, HEK293-NOX2, PMA-stimulated, NOX inhibitor project, primary screen (AID 1159); also: test concentration not given here
# Test Context: 45 min, higher = more signal, called active from +8 up or from −8 down
Answer with the value's number alone.

Note to self: z-score recorded for COC(=O)[C@@]1(Cc2ccccc2)[C@H]2c3cc(C(=O)N(C)C)n(Cc4ccc(O)c(OC)c4)c3C[C@H]2CN1C(=O)c1ccccc1 was -4.69

Note to self: z-score recorded for O=[N+]([O-])c1ccc(C[n+]2ccc(-c3ccc(CO)cc3)cc2)o1 was 0.0654

Note to self: z-score recorded for C=CCOc1ccc([C@@H]2CC=C(C(=O)OCC)[C@H](c3cccc(Br)c3)N2S(=O)(=O)c2ccc(C)cc2)cc1 was 0.629

Note to self: z-score recorded for CC(=O)NCCCC[C@@H]1NC(=O)[C@H]2C[C@@H](C(=O)NCCCCCN)[C@@H](c3cccc(OCCO)c3)N2C1=O was 0.0821

Note to self: z-score recorded for CC(C)(C)N1CC=CC23O[C@@H]4C=CCCOC(=O)C4[C@H]2C(=O)N(CCCO)[C@@H]3C1=O (some centres undefined) was -2.85

Note to self: z-score recorded for CC[C@@H]1[C@@H]2C3C(=O)N(CC)C(=O)C3CC(=O)[C@@H]2[C@H](c2ccc(C)cc2)N1S(=O)(=O)c1ccc(C)cc1 (some centres undefined) was 1.04

Note to self: z-score recorded for CCOC(=O)C[C@H]1[C@H](OC(=O)c2ccc(C(=O)c3ccccc3)cc2)[C@@H](NC(=O)C2CCCCC2)c2cc(OCCCO)ccc2N1C(=O)Cc1ccc(OC)cc1 was -1.38

Note to self: z-score recorded for CN(C)CCCC[C@@H]1NC(=O)[C@H]2C[C@@H](C(=O)NCCCCCCNC(=O)CS)[C@@H](c3ccc(O)cc3)N2C1=O was 1.35

Note to self: z-score recorded for C#CCNS(=O)(=O)N(C)C was -0.533

Note to self: z-score recorded for CC(C)C(CO)N1C(=O)[C@@H]2[C@H]3C(=O)OCC=C[C@H]3OC23C=CCN(CCN2CCOCC2)C(=O)[C@@H]13 (some centres undefined) was 1.26

Note to self: z-score recorded for COC(=O)[C@@]1(Cc2ccccc2N=[N+]=[N-])N=C(c2ccc(OCCCO)cc2)O[C@H]1c1ccccc1 was -2.34

Note to self: z-score recorded for C=C(COC)C(=O)CC[C@H](OC(=O)c1ccccc1-c1ccccc1C(=O)O)c1ccc(OCCO)cc1 was 0.00741

Note to self: z-score recorded for C=C(COC)C(=O)CC[C@H](OC(=O)c1ccccc1-c1ccccc1C(=O)O)c1ccc(CO)o1 was -0.0961

Note to self: z-score recorded for O=C1C2C=CC(C(O)c3ccccn3)N(Nc3ccccc3)C2C(=O)N1c1ccccc1 (centres undefined) was -1.21

---

# Protocol Description: plasmodial surface anion channel blockers, osmotic lysis – cell-based, P. falciparum Indochina, OD700, 1 h, primary screen (AID 1154)
# Test Context: P. falciparum Indochina infected RBC osmotic lysis, called active from +8 up or from −8 down
Active and inactive are the calls of the source.
// one of active, inactive, no free text

Query: Tell me the recorded outcome of this test for COc1ccc([Si](C)(C)[C@@H]2[C@@H](CC(=O)N3Cc4ccccc4C[C@H]3CO)O[C@]3(C(=O)N(Cc4cccc(N5CCCCC5=O)c4)c4ccccc43)[C@H]2C)cc1 .
Response: inactive

Query: Tell me the recorded outcome of this test for COC(=O)[C@@]1(Cc2ccc(OC)cc2)[C@H]2c3cc(C(=O)N(C)C)n(Cc4cc(C)n(C)n4)c3C[C@H]2CN1C(=O)c1ccccc1 .
Response: inactive

Query: Tell me the recorded outcome of this test for CC(C)NC(=O)[C@@H]1c2ccccc2C(=O)N(Cc2cc(C(F)(F)F)cc(C(F)(F)F)c2)[C@H]1c1ccc(CO)cc1 .
Response: inactive

Query: Tell me the recorded outcome of this test for COCCCNC(=O)[C@]1(Cc2ccccc2)N=C(c2ccc(OCCCO)cc2)O[C@@H]1c1ccccc1N=[N+]=[N-] .
Response: active

Query: Tell me the recorded outcome of this test for COc1ccc([Si](C)(C)[C@@H]2[C@@H](CC(=O)N(CCO)Cc3ccccc3)O[C@]3(C(=O)N(C)c4c(Br)cc(C)cc43)[C@H]2C)cc1 .
Response: active

Query: Tell me the recorded outcome of this test for COc1cc2c(cc1OC)CN(C(=O)[C@@H]1[C@H]3C(=O)O[C@H](c4ccccc4)[C@H](c4ccccc4)N3[C@H](c3ccc(OCCO)cc3)[C@@]13C(=O)Nc1ccc(C#CCCO)cc13)CC2 .
Response: inactive

Query: Tell me the recorded outcome of this test for COCCOC(=O)N1C(=O)[C@@]2(c3cc(C#CCNC(N)=O)ccc31)[C@H](C(=O)N1CCCCCCC1)[C@H]1C(=O)O[C@H](c3ccccc3)[C@H](c3ccccc3)N1[C@@H]2c1ccc(OCCO)cc1 .
Response: inactive

Query: Tell me the recorded outcome of this test for O=C1O[C@H](c2ccccc2)[C@H](c2ccccc2)N2[C@H]1[C@@H](C(=O)N1CCN(c3ncccn3)CC1)[C@]1(C(=O)Nc3ccc(C#CCCO)cc31)[C@H]2c1ccc(OCCO)cc1 .
Response: inactive

Query: Tell me the recorded outcome of this test for C[N+](C)(C)CCCCCCNC(=O)[C@H]1C[C@H]2C(=O)N3CCC[C@H]3C(=O)N2[C@H]1c1cccc(OCCO)c1 .
Response: inactive

Query: Tell me the recorded outcome of this test for O=C1OCC=C[C@H]2OC34C=CCN(CCN5CCOCC5)C(=O)[C@H]3N(CCCCCO)C(=O)[C@@H]4[C@@H]12 (stereo not given in full) .
Response: inactive

Query: Tell me the recorded outcome of this test for COC(=O)C(CC#Cc1ccc2c(c1)[C@]1(C(=O)N2)[C@H](c2ccccc2OCCO)N2[C@H](c3ccccc3)[C@H](c3ccccc3)OC(=O)[C@H]2[C@@H]1C(=O)Nc1nc2ccccc2s1)C(=O)OC .
Response: inactive

Query: Tell me the recorded outcome of this test for C[C@H]1ON(c2ccccc2)[C@@H](c2ccccc2)[C@@H]1C(=O)N1C(=O)OC[C@@H]1c1ccccc1 .
Response: inactive

Query: Tell me the recorded outcome of this test for CCCNC(=O)[C@@]1(Sc2ccc(C)cc2)CC(=O)N(Cc2ccccc2)[C@@H]1c1ccc(CO)cc1I .
Response: inactive

Query: Tell me the recorded outcome of this test for CC(C)NC(=O)[C@@]1(Cc2ccccc2I)c2ccccc2C(=O)N(Cc2ccccc2C(F)(F)F)[C@H]1c1ccc(CO)cc1 .
Response: inactive

Query: Tell me the recorded outcome of this test for COCCOC(=O)N1C(=O)[C@@]2(c3cc(C#Cc4ccc(OC)cc4)ccc31)[C@H](C(=O)N1CCc3cc(OC)c(OC)cc3C1)[C@H]1C(=O)O[C@H](c3ccccc3)[C@H](c3ccccc3)N1[C@@H]2c1ccc(OCCO)cc1 .
Response: inactive
